I'd appreciate it if you could supply melting point values for the items below.

These solved cases illustrate the format of a correct answer.
{"Compound": "CCOc1ccc(-n2c(Br)nnc2CCC(=O)[O-])c2ccccc12.[Na+] [Compound 1m]", "melting point": "194 °C (dec.)"}
{"Compound": "O=C([O-])CCc1nnc(I)n1-c1ccc(C2CC2)c2ccccc12.[Na+] [Compound 1d]", "melting point": "158 °C (dec.)"}
{"Compound": "O=C([O-])CCc1nncn1-c1ccc(C2CC2)c2ccccc12.[Na+] [Compound 1a]", "melting point": "140 °C (dec.)"}
{"Compound": "O=C([O-])CCc1nnc(Br)n1CCc1ccc(Br)c2ccccc12.[Na+] [Compound 1p]", "melting point": "167 °C (dec.)"}
{"Compound": "O=C([O-])CCc1nnc(Br)n1-c1cccc2ccccc12.[Na+] [Compound 1g]", "melting point": "182 to 184 °C"}
{"Compound": "O=C([O-])CCCCc1nnc(Br)n1Cc1ccc(Br)c2ccccc12.[Na+] [Compound 1r]", "melting point": "146 to 149 °C"}
{"Compound": "CCc1ccc(-n2c(Br)nnc2CCC(=O)[O-])c2ccccc12.[Na+] [Compound 1i]", "melting point": "198 °C (dec.)"}
{"Compound": "O=C([O-])CCc1nnc(Cl)n1-c1ccc(C2CC2)c2ccccc12.[Na+] [Compound 1b]", "melting point": "135 °C (dec.)"}
{"Compound": "COc1ccc(-n2c(Br)nnc2CCC(=O)[O-])c2ccccc12.[Na+] [Compound 1l]", "melting point": "211 °C (dec.)"}
{"Compound": "O=C([O-])CCc1nnc(Br)n1-c1ccc(Br)c2ccccc12.[Na+] [Compound 1n]", "melting point": "204 °C (dec.)"}

// input: 5 compounds below; output: melting point for each
1. CCOc1nnc(CCC(=O)[O-])n1-c1ccc(C2CC2)c2ccccc12.[Na+] [Compound 1f]
2. Cc1ccc(-n2c(Br)nnc2CCC(=O)[O-])c2ccccc12.[Na+] [Compound 1h]
3. COc1nnc(CCC(=O)[O-])n1-c1ccc(C2CC2)c2ccccc12.[Na+] [Compound 1e]
4. CCCc1ccc(-n2c(Br)nnc2CCC(=O)[O-])c2ccccc12.[Na+] [Compound 1j]
5. CC(C)c1ccc(-n2c(Br)nnc2CCC(=O)[O-])c2ccccc12.[Na+] [Compound 1k]

101.5 °C (dec.)
155 °C (dec.)
133 °C (dec.)
183 °C (dec.)
194 °C (dec.)

---

Biological target: human URAT1 (Homo sapiens)
Sequence (Q96S37 1-553): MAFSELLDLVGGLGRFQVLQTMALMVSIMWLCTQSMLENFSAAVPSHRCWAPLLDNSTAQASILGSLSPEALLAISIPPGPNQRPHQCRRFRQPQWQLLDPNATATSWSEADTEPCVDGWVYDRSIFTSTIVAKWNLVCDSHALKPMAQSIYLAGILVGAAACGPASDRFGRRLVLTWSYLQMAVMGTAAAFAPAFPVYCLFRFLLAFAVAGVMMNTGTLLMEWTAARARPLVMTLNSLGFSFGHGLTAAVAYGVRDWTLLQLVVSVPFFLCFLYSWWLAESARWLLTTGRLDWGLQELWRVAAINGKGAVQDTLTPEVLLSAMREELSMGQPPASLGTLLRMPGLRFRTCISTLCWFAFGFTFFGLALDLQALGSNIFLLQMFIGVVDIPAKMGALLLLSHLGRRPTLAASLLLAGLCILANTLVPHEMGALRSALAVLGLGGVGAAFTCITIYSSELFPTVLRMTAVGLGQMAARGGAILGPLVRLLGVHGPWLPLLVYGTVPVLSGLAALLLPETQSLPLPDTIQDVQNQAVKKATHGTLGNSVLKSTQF
Test Readout: IC50 (nM)
Give bare numbers, in nM.

{"Compound Smiles": "O=C(O)CCc1nnc(Br)n1Cc1ccc(Br)c2ccccc12", "Readout Number": 610}

Parameter requested: IC50. Apply to each item below.
1. COc1ccc(-n2c(Br)nnc2CCC(=O)[O-])c2ccccc12.[Na+]
2. CCOc1nnc(CCC(=O)[O-])n1-c1ccc(C2CC2)c2ccccc12.[Na+]
3. CC(C)c1ccc(-n2c(Br)nnc2CCC(=O)[O-])c2ccccc12.[Na+]
4. O=C([O-])CCCc1nnc(Br)n1Cc1ccc(Br)c2ccccc12.[Na+]

[36600, 9100, 1100, 230]

---

molecular target: human URAT1 (Homo sapiens)
Test Readout: IC50 (µM)
Give bare numbers, in µM.

{"Molecule": "CCCc1ccc(-n2c(Br)nnc2CCC(=O)[O-])c2ccccc12.[Na+] [Compound 1j]", "Readout Number": 8.3}

With those in mind, consider the next molecule.
Field request: IC50 | item: O=C([O-])CCc1nnc(Br)n1-c1ccc(C2CC2)c2ccccc12.[Na+] [Compound 1c]
2.4
